assay: Loss of bioactivity on storage at elevated temperatures; assay type: physicochemical; details: 100° C., 48 hours
Endpoint Label: degraded at 48 h

Report degraded at 48 h for NC(C(=O)NC1C(=O)N2C(C(=O)O)=C(CSc3c[nH]nn3)CSC12)c1ccc(O)cc1 (stereo not shown) please.
< 12%
